Assay: Plasma pharmacokinetics after single intravenous and oral dose
Assay type: in vivo, male BALB/c mice
Conditions: male, BALB/c, mouse, plasma, po, 5 mg/kg, PO 5 mg/kg, 1 hr; read-out: Plasma concentration, individual animals
Experimental: The objective of this study was to investigate the plasma pharmacokinetics of Compound 1 in male BALB/c mice following a single intravenous and oral dose administration. A group of eighteen male mice were divided in to two groups as Group 1 and Group 2 with nine mice in each group. […] Concentrations of Compound 1 in mouse plasma samples were determined by fit-for-purpose LC-MS/MS method. […]
observation type: concentration at 1 hr (ng/mL)

INSERT INTO results (molecular_string, observed_measurement) VALUES
  ('Cn1c(=O)c2c(ncn2CC(=O)Nc2ccc(-c3ccccc3O)nn2)n(C)c1=O', 462);

* * *

Experiment: Plasma pharmacokinetics after single intravenous and oral dose
Format: in vivo, male BALB/c mice
Details: male, BALB/c, mouse, plasma, iv, 1 mg/kg, IV 1 mg/kg, 4 hr; read-out: Plasma concentration, Mean
observation type: concentration at 4 hr (ng/mL)

INSERT INTO results (molecular_string, observed_measurement) VALUES
  ('Cn1c(=O)c2c(ncn2CC(=O)Nc2ccc(-c3ccccc3O)nn2)n(C)c1=O', 34.7);

* * *

Test: Plasma pharmacokinetics after single intravenous and oral dose
Format: in vivo, male BALB/c mice
Conditions: male, BALB/c, mouse, plasma, iv, 1 mg/kg, IV 1 mg/kg, 8 hr; read-out: Plasma concentration, Mean
observation type: concentration at 8 hr (ng/mL)

INSERT INTO results (molecular_string, observed_measurement) VALUES
  ('Cn1c(=O)c2c(ncn2CC(=O)Nc2ccc(-c3ccccc3O)nn2)n(C)c1=O', 14.5);

* * *

Assay: Plasma pharmacokinetics after single intravenous and oral dose
Assay type: in vivo, male BALB/c mice
Conditions: male, BALB/c, mouse, plasma, po, 5 mg/kg, PO 5 mg/kg, 0.25 hr; read-out: Plasma concentration, individual animals
observation type: concentration at 0.25 hr (ng/mL)

INSERT INTO assay_data (molecular_string, observed_measurement) VALUES
  ('Cn1c(=O)c2c(ncn2CC(=O)Nc2ccc(-c3ccccc3O)nn2)n(C)c1=O', 1690);

* * *

Test: Plasma pharmacokinetics after single intravenous and oral dose
Type: in vivo, male BALB/c mice
Conditions: male, BALB/c, mouse, plasma, iv, 1 mg/kg, IV 1 mg/kg, 2 hr; read-out: Plasma concentration, Mean
observation type: concentration at 2 hr

INSERT INTO assay_data (compound, observation_type, observed_measurement) VALUES
  ('Cn1c(=O)c2c(ncn2CC(=O)Nc2ccc(-c3ccccc3O)nn2)n(C)c1=O [Compound 1]', 'concentration at 2 hr', '50.7 ng/mL');

* * *

Test: Plasma pharmacokinetics after single intravenous and oral dose
Assay type: in vivo, male BALB/c mice
Conditions: male, BALB/c, mouse; PO 5 mg/kg, plasma
Procedure: The objective of this study was to investigate the plasma pharmacokinetics of Compound 1 in male BALB/c mice following a single intravenous and oral dose administration. A group of eighteen male mice were divided in to two groups as Group 1 and Group 2 with nine mice in each group. […] Concentrations of Compound 1 in mouse plasma samples were determined by fit-for-purpose LC-MS/MS method. […]
observation type: Cmax (ng/mL)

INSERT INTO measurements (molecular_string, observation_type, unit_tag, observed_measurement) VALUES
  ('Cn1c(=O)c2c(ncn2CC(=O)Nc2ccc(-c3ccccc3O)nn2)n(C)c1=O', 'Cmax', 'ng/mL', 1860);
